target: T1, human tissue factor (TF) on MDA-MB-231, NCI-H358 and HCT116 cells (human, UniProt P13726 33-295); assay: flow cytometry on H358 cells
T1 construct: whole, on cells; also called TF antigen; CD142
Each record's class is read off its EC50 using these ranges: I = under 0.6 nM, II = from 0.6 nM up to 1 nM, III = 1 nM and over

Into which bin does this binder go? hu10H10-58 (antibody, V domains shown, H2+L6; Full-length IgG) VH: EVQLVQSGSELKKPGASVKVSCKASGYTFITYWIEWVRQRPGQGLEWMGDILPGSGSTNYNENFKGRAVFSADTSVSTAYLQISSLKAEDTAVYYCARSGYYGNSGFAYWGQGTLVTVSS VL: DIQMTQSPSSLSASVGDRVTITCKSSQSLLSSSNQKNYLTWYQQKPGKAPKLLIYWASTREEGVPSRFSGSGSGTDFTLTISSLQPEDFATYYCQNDYTYPLTFGQGTKLEIK
III

Any idea which band hu67-4 (antibody, human IgG1, kappa, V domains shown) VH: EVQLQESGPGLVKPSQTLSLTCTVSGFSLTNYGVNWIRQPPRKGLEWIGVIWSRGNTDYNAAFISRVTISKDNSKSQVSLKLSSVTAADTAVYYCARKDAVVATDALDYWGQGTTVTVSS VL: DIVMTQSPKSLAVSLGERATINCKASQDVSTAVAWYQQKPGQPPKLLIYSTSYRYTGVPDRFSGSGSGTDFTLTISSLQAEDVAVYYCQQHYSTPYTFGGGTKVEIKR is in?
III

Into which category would you place chimeric antibody CH67 (antibody, human IgG1, kappa, V domains shown, Murine 67# variable regions + human constant regions) VH: QVQLKQSGPGLVQPSQSLSITCIVSGFSLTNYGVNWVRQSPRKGLEWLGVIWSRGNTDYNAAFISRLIISKDNSKSQVFLKMNRLQADDTAIYYCARKDAVVATDALDYWGQGTSVTVSS VL: DIVMTQSHKFMSTSLGDRVSITCKASQDVSTAVAWYQQKPGQSPKLLIYSTSYRYTGVPDRFTGSGSGTDFTFTISSVQAEDLAVYYCQQHYSTPYTFGGGTKLEIKR ?
III

Lab note: sort hu10H10-35 (antibody, V domains shown, H9+L3; Full-length IgG) VH: EVQLVQSGSELKKPGASVKVSCKASGYTFRTYWIEWVKQRPGQGLEWMGDILPGSGSTNYNENFKGRATFSADTSVSTAYLQISSLKAEDTAVYYCARSGYYGNSGFAYWGQGTLVTVSS VL: DIQMTQSPSSLSASVGDRVTITCKSSQSLLSSGNQKNYLTWYQQKPGKAPKLLIYWASTREEGVPSRFSGSGSGTDFTLTISSLQPEDFATYYCQNDYTYPLTFGQGTKLEIK into the matching EC50 band.
II

Given hu10H10-36 (antibody, V domains shown, H10+L3; Full-length IgG) VH: EVQLVQSGSELKKPGASVKVSCKASGYTFIEYWIEWVKQRPGQGLEWMGDILPGSGSTNYNENFKGRATFSADTSVSTAYLQISSLKAEDTAVYYCARSGYYGNSGFAYWGQGTLVTVSS VL: DIQMTQSPSSLSASVGDRVTITCKSSQSLLSSGNQKNYLTWYQQKPGKAPKLLIYWASTREEGVPSRFSGSGSGTDFTLTISSLQPEDFATYYCQNDYTYPLTFGQGTKLEIK , name the class its EC50 places it in.
II

Exercise: read the entry hu10H10-39 (antibody, V domains shown, H13+L3 (printed bu10H10-39); Full-length IgG; also called bu10H10-39) VH: EVQLVQSGSELKKPGASVKVSCKASGYTFITYWIEWVKQRPGQGLEWMGDILPGSGWTNYNENFKGRATFSADTSVSTAYLQISSLKAEDTAVYYCARSGYYGNSGFAYWGQGTLVTVSS VL: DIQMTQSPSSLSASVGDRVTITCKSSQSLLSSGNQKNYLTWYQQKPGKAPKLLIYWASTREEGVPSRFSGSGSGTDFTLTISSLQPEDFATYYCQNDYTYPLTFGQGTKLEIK and state which class it falls under.
I

// bin(item) where item = hu10H10-29 (antibody, V domains shown, H11+L1; Full-length IgG) VH: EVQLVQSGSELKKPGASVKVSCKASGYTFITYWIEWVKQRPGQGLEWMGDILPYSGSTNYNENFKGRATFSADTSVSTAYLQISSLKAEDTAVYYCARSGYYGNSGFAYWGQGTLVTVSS VL: DIQMTQSPSSLSASVGDRVTITCKSSQSLLSSGNQKNYLTWYQQKPGKAPKLLIYWASTRESGVPSRFSGSGSGTDFTLTISSLQPEDFATYYCQNDYTYPLTFGQGTKLEIK
I

Categorize the following entry: hu10H10-37 (antibody, V domains shown, H11+L3; Full-length IgG) VH: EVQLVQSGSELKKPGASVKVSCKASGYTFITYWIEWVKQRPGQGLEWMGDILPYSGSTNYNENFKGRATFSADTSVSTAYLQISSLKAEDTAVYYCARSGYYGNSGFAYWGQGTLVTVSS VL: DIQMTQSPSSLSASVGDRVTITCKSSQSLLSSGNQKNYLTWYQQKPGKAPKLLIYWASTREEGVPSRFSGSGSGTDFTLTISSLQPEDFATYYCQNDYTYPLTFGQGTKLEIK
I

Record hu10H10-40 (antibody, V domains shown, H14+L3 (printed bu10H10-40); Full-length IgG; also called bu10H10-40) VH: EVQLVQSGSELKKPGASVKVSCKASGYTFITYWIEWVRQRPGQGLEWMGDILPGSGWTNYNENFKGRAVFSADTSVSTAYLQISSLKAEDTAVYYCARSGYYGNSGFAYWGQGTLVTVSS VL: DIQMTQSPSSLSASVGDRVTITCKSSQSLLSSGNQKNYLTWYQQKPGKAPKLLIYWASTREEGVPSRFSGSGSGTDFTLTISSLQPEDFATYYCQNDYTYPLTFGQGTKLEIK — which class?
I
